Cited source for all entries: patent US10538516B2

measurement_target: GAβ-dependent amyloid fibril formation (Human Aβ1-40 + GM1-containing liposome) (Homo sapiens, UniProt P05067)
Construct: Human Aβ1-40 (cat. #4307-v, prepared by Peptide Institute); purchased Peptide Institute 4307-v
Sequence (P05067 672-711 limits assumed): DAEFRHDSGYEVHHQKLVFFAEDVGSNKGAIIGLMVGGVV
assay_details: Thioflavin T (ThT) assay of GAβ-dependent amyloid fibril formation (Aβ1-40 with GM1-containing liposome)
Type: biochemical
conditions: @25 μM; read-out: ThT Inhibitory activity (% inhibition)
Measured inhibition at 25 µM accompanies every entry in the list below.
Kindly provide the numeric value in % only, without the unit symbol.

Reference set, count: 5
compound: O=C(N[C@@H](CO)c1nc(-c2ccc(OCCO)cc2)no1)c1ccccc1
inhibition at 25 µM / %: 74
--
compound: O=C(N[C@@H](CO)c1nc(-c2cccc(C(F)(F)F)c2)no1)c1ccc(F)c(Cl)c1
inhibition at 25 µM / %: 59
--
compound: O=C(N[C@@H](CO)c1nc(-c2ccc(OC(F)(F)F)cc2)no1)c1ccccc1
inhibition at 25 µM / %: 81
--
compound: CNCC(NC(=O)c1ccc(Cl)cc1)c1nnc(-c2ccc(OC(F)(F)F)cc2)o1 (centres unmarked)
inhibition at 25 µM / %: 72
--
compound: O=C(N[C@@H](CO)c1nc(-c2csc3ccccc23)no1)c1ccc(F)cc1
inhibition at 25 µM / %: 73

inhibition at 25 µM for O=C(N[C@@H](CO)c1nc(-c2ccc(C3(F)COC3)cc2)no1)c1ccc(F)cc1 ? 67

Continue with COc1ccc(-c2noc([C@H](CO)NC(=O)c3ccc(Cl)cc3)n2)cc1 88

Continue with O=C(N[C@@H](CO)c1nc(-c2ccc(OC(F)(F)F)cc2)no1)c1ccc(Cl)cc1 98
